Property: protein stability index; scope: individual sequences
- Test system: Saccharomyces cerevisiae
- protocol_notes: protein stability index of tFT-peptide fusion (C-terminal peptide) (PSI (0-1 scale)); higher = more stable (slower turnover)
- study_conditions: genetic background: das1 deletion; temperature: 30 C
# print the numeric value only

Worked cases, protein stability index given:
chain_sequence	protein stability index
AMLKPSSKEGSP [COQ10 C-terminal 12 aa]	0.695
LEQYEKTLVHDD [GCV3 C-terminal 12 aa]	0.694
KRSLRRNARKGL [ESC8 C-terminal 12 aa]	0.721
PTTRPYIYEPRK [ELA1 C-terminal 12 aa]	0.696
KRIDSYIDEMTT [MCO14 C-terminal 12 aa]	0.723

Data request: Looking for the measured protein stability index of TNERQLNPWICN [YML090W C-terminal 12 aa] , can you help?
Data returned: 0.706

Data request: Which measured protein stability index value corresponds to ESDDDMGFGLFD [RPP0 C-terminal 12 aa] ?
Data returned: 0.718

----------
protein stability index reference
- Tested on: Saccharomyces cerevisiae
- protocol_notes: protein stability index of tFT-peptide fusion (C-terminal peptide) (PSI (0-1 scale)); higher = more stable (slower turnover)
- study_conditions: genetic background: das1 deletion; temperature: 30 C
# answer = number (no unit)

// solved cases for protein stability index follow
chain_sequence	tested_target	protein stability index
LVHLVLYVAVFC	Saccharomyces cerevisiae	0.292
PGHICVPVLGTA	Saccharomyces cerevisiae	0.348
LWYVQILNIVLN	Saccharomyces cerevisiae	0.293
WVVVARIFSVFF	Saccharomyces cerevisiae	0.445
KLMGWFVGVVAR	Saccharomyces cerevisiae	0.355

Data request: Please look up its protein stability index: `SFFFLILFLFRD`
Data returned: 0.315

Data request: Reported protein stability index, sequence `SVGWGFWARFIG` : ____
Data returned: 0.665

Data request: # get_value(readout='protein stability index', item= `GFVLMLLVRFEL` )
Data returned: 0.309

----------
- Tested on: Saccharomyces cerevisiae
- protocol_notes: protein stability index of tFT-peptide fusion in wild type (PSI (0-1 scale)); higher = more stable (slower turnover)
- study_conditions: genetic background: wild type
endpoint_label: protein stability index
# print the numeric value only

Solved entries (count: 5):
chain_sequence	tested_target	protein stability index
CTSCGYKFRTNN	Saccharomyces cerevisiae	0.247
VRGAVGGWRLPG	Saccharomyces cerevisiae	0.683
AITLPMCPQLLR	Saccharomyces cerevisiae	0.64
LRILRQKMNHQN	Saccharomyces cerevisiae	0.148
AITLSMCPLLLR	Saccharomyces cerevisiae	0.311

Attention now turns to another entry.
Data request: Data request, read-out protein stability index, for `CLVSLPIRLFFR`
Data returned: 0.0878

----------
- System: Saccharomyces cerevisiae
- protocol_notes: protein stability index of tFT-peptide fusion (C-terminal peptide) (PSI (0-1 scale)); higher = more stable (slower turnover)
- study_conditions: genetic background: wild type; temperature: 30 C
endpoint_label: protein stability index
Simply state the number, no unit and no words.

chain_sequence	protein stability index
WFYLLFVLFGLV	0.426
APSPPPDPATPR	0.672
KNEKEKKTKMRN	0.754
PSPPASTPLPPP	0.684
LVSGCLCRKVLV	0.531
WMAFRRIPTWSG	0.679

Data request: Given `GEGGENRRNGTV` , state its recorded protein stability index.
Data returned: 0.7

Data request: Request the reported protein stability index associated with `GVVGGGGEAWRE`
Data returned: 0.794

Data request: Data request, read-out protein stability index, for `FAFWGGHSWLSC`
Data returned: 0.791

Data request: Requested read-out: protein stability index. Entry: `PPSPAFSSSLPP`
Data returned: 0.635

Data request: Dear colleague, I am looking for the recorded protein stability index of the following sequence: `GWVPCGSWRVPG`
Data returned: 0.631
